Tested on: DLD-1
ASSAY REMARKS: NCI tumour cell line growth inhibition, 48 h
The source made the active and inactive calls. Cut-off read from the data, not from the text of the source: active = GI50 up to about 1.1 µM and inactive = higher.
Valid outcomes are listed here; reply with one: active, inactive

Examples from the recorded data:
MOLECULE	EXPERIMENTAL SYSTEM	ASSIGNED LABEL
CN(C)C=[N+]=[N-]	DLD-1	inactive
Cc1ccc(S(=O)(=O)N/N=C/c2oc(-c3ccncc3)c(-c3ccncc3)c2[N+](=O)[O-])cc1	DLD-1	inactive
CCOC(=O)NC(=O)c1cn(CCOCCOC(=O)NCCCCCCNC(=O)OCCOCCn2cc(C(=O)NC(=O)OCC)c(=O)[nH]c2=O)c(=O)[nH]c1=O	DLD-1	inactive
OC[C@H]1O[C@@H](n2cnc3cncnc32)[C@H](O)[C@@H]1O	DLD-1	active
CO[C@H]1[C@H](O)[C@H](O[C@H]2CC[C@@]3(C)[C@H](CC[C@@H]4[C@@H]3CC[C@]3(C)[C@@H](C5=CC(=O)OC5)CC[C@]43O)C2)O[C@@H](C)[C@@H]1O	DLD-1	active
COc1ccc(OC(=O)CC2Cc3cc(OC)c(OC)c(OC)c3-c3ccc(SC)c(=O)cc32)cc1 (configuration not stated)	DLD-1	active

Please share the test call associated with COC(=O)C1C(C)N1C (configuration not stated) . inactive

Please share the test call associated with "Nc1ccc(C(=O)Nc2ccccc2N)cc1" . inactive

---

Tested on: ACHN
ASSAY REMARKS: NCI tumour cell line growth inhibition, 48 h
Active and inactive are the calls of the source. Rule as the data show it: active = GI50 up to about 1.1 µM and inactive = higher. *1 amine or outer side, *2 acyl side, *3 side chain or, on linkers, in order; H or OH if unused. Where a SMILES comes first, the peptide text is derived from it. [ ]: non-standard residue; d: D form. The star is where a group is joined. ξ: configuration not given here. NMeY = CN[C@@H](Cc1ccc(O)cc1)C(=O)O; Ethylenediamine = C(CN[*:2])N[*:1]; ξNMeL = CNC(CC(C)C)C(=O)O; Cbz = O=C(OCc1ccccc1)*; Lac = C[C@H](O)C(=O)O; ξA = CC(N)C(=O)O
VALUE TYPE: GI50

Entry Cc1[nH]c2ccccc2c1C1CC(=O)NC1=O (stereo not given) has what GI50? > 100 µM (inactive)

Entry CC(C)(C)NC(=O)C12C3C4C1C1C2C3C41C(=O)NC(C)(C)C (stereo not given) has what GI50? > 100 µM (inactive)

Entry "COc1ccc(C[C@@H]2CN(C(=O)c3ccccc3)[C@H](Cc3ccc(O)cc3)CN2C(=O)c2ccccc2)cc1Br" has what GI50? > 100 µM (inactive)

Entry "COc1c(CC(C)=O)ccc2c1C(=O)c1ccc(C=O)c(OC(C)=O)c1C2=O" has what GI50? 15.1 µM (inactive)

Entry COc1ccc(C[C@@H](C(=O)NCCNC(=O)C(CC(C)C)N(C)C(=O)[C@@H]2CCCN2C(=O)[C@H](C)O)N(C)C(=O)[C@@H]2CCCN2C(=O)[C@H](CC(C)C)NC(=O)C(C)NC(=O)OCc2ccccc2)cc1 (stereo not given in full) (Cbz-[ξA]LP[NMeY](Me)-{Ethylenediamine-ξNMeL-Pro-Lac}) has what GI50? > 100 µM (inactive)

Entry "COc1cc(/C=C/c2nc(N)nnc2C)cc(OC)c1OC" has what GI50? 15.5 µM (inactive)

Entry O=C(CC(=O)N1N=C(N(c2ccccc2)c2ccccc2)CC1c1ccccc1)Nc1cccc(Cl)c1 (stereo not given) has what GI50? > 100 µM (inactive)
